meta.source: the supplement of paper PMC11208160

In this section, each of the sequences is paired with its reported recombinant barcode read abundance (log10).
Experiment notes: recombinant barcode read abundance after kanamycin selection (control-corrected) (log10(CPM+1)); higher = more efficient recombination; sequences stand for … in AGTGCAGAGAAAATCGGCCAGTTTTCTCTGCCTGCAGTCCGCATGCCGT…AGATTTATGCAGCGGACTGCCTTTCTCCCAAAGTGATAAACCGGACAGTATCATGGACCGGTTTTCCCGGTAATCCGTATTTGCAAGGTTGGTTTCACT; site = the 11-nt target;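 note: IS621 recombinase and bridge RNA in Escherichia coli cells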
// no unit, no text: just the number

// known answers, use as guide
{"Sequence text": "GACCTGGCTTGGGTTCTAACCTGTTGCCG (site GACCTGACTTG)", "Quantitative result": 0.176}
{"Sequence text": "AGCCGTACTTGGGTTCTAACCTGTTGCCT (site AGCCGTACTAG)", "Quantitative result": 0.341}

Provide recombinant barcode read abundance (log10) value for the following sequence: GTAATTGCTTGGGTTCTAACCTGTTGCCT (site GTAAGTGCTAG) 0.0962

Provide recombinant barcode read abundance (log10) value for the following sequence: CTAGGCCCTTGGGTTCTAACCTGTTGCCT (site CTAGGCCCTAT) 0.506

Provide recombinant barcode read abundance (log10) value for the following sequence: CGCCTCTCTTGGGTTCTAACCTGTTGCCT (site CGCCTCCCTAG) 0.211
